- Experimental target: T1, mouse serum albumin (mouse, UniProt P07724 25-608)
- T1 construct: bought protein, amine-coupled to a CM5 chip; also called Mouse SA
- Procedure details: SPR (Biacore 8K), albumin immobilised, 25 C, 1:1 kinetics
Measured property: kon (M⁻¹ s⁻¹)
Number in M⁻¹ s⁻¹, nothing else.

Binder	Observed value
INS Analog 27 (other, single-chain insulin B-L2-A-L1-VHH fusion; also called Ex. 27) FVSQHLCGSHLVEALRLVCGERGFFYTPKTGGGGGGGIVEQCCHSICSLYQLENYCGGGGGQGGGGQGGGGQGGGGQGGGGQEVQLLESGGGLVQPGGSLRLSCAASGRYIDETAVAWFRQAPGKEREFVAGIGGGVDITYYADSVKGRFTISRDNSKNTLYLQMNSLRPEDTAVYYCAARPGRPLITSKVADLYPYWGQGTLVTVSSPP	170000

# input binder: INS Analog 23 (other, single-chain insulin B-L2-A-L1-VHH fusion; also called Ex. 23) FVSQHLCGSHLVEALHLVCGERGFHYTPKTGGGGGGGIVEQCCHSICSLEQLENYCGGGGGQGGGGQGGGGQGGGGQGGGGQEVQLLESGGGLVQPGGSLRLSCAASGRYIDETAVAWFRQAPGKEREFVAGIGGGVDITYYADSVKGRFTISRDNSKNTLYLQMNSLRPEDTAVYYCAARPGRPLITSKVADLYPYWGQGTLVTVSSPP ; wanted: its kon
120000

# input binder: INS Analog 29 (other, single-chain insulin B-L2-A-L1-VHH fusion; also called Ex. 29) FVSQHLCGSHLVEALRLVCGERGFHYTPKTGGGGGGGIVEQCCHSICSLYQLENYCGGGGGQGGGGQGGGGQGGGGQGGGGQEVQLLESGGGLVQPGGSLRLSCAASGRYIDETAVAWFRQAPGKEREFVAGIGGGVDITYYADSVKGRFTISRDNSKNTLYLQMNSLRPEDTAVYYCAARPGRPLITSKVADLYPYWGQGTLVTVSSPP ; wanted: its kon
180000

# input binder: INS Analog 28 (other, single-chain insulin B-L2-A-L1-VHH fusion; also called Ex. 28) FVSQHLCGSHLVEALRLVCGERGFFYTPKTGGGGGGGIVEQCCHSICSLYQLENYCGPGPQPGPQPGPQPGPQPGPQPGPQPGPQPGPQEVQLLESGGGLVQPGGSLRLSCAASGRYIDETAVAWFRQAPGKEREFVAGIGGGVDITYYADSVKGRFTISRDNSKNTLYLQMNSLRPEDTAVYYCAARPGRPLITSKVADLYPYWGQGTLVTVSSPP ; wanted: its kon
160000

# input binder: INS Analog 24 (other, single-chain insulin B-L2-A-L1-VHH fusion; also called Ex. 24) FVSQHLCGSHLVEALHLVCGERGFHYTPKTGGGGGGGIVEQCCHSICSLEQLENYCGPGPQPGPQPGPQPGPQPGPQPGPQPGPQPGPQEVQLLESGGGLVQPGGSLRLSCAASGRYIDETAVAWFRQAPGKEREFVAGIGGGVDITYYADSVKGRFTISRDNSKNTLYLQMNSLRPEDTAVYYCAARPGRPLITSKVADLYPYWGQGTLVTVSSPP ; wanted: its kon
150000

# input binder: INS Analog 30 (other, single-chain insulin B-L2-A-L1-VHH fusion; also called Ex. 30) FVSQHLCGSHLVEALRLVCGERGFHYTPKTGGGGGGGIVEQCCHSICSLYQLENYCGPGPQPGPQPGPQPGPQPGPQPGPQPGPQPGPQEVQLLESGGGLVQPGGSLRLSCAASGRYIDETAVAWFRQAPGKEREFVAGIGGGVDITYYADSVKGRFTISRDNSKNTLYLQMNSLRPEDTAVYYCAARPGRPLITSKVADLYPYWGQGTLVTVSSPP ; wanted: its kon
190000

# input binder: INS Analog 25 (other, single-chain insulin B-L2-A-L1-VHH fusion; also called Ex. 25) FVSQHLCGSHLVEALRLVCGERGFFYTPKTGGGGGGGIVEQCCTSICSLYQLENYCGGGGGQGGGGQGGGGQGGGGQGGGGQEVQLLESGGGLVQPGGSLRLSCAASGRYIDETAVAWFRQAPGKEREFVAGIGGGVDITYYADSVKGRFTISRDNSKNTLYLQMNSLRPEDTAVYYCAARPGRPLITSKVADLYPYWGQGTLVTVSSPP ; wanted: its kon
220000
